I'd appreciate it if you could supply IC50 values for the items below.
Target: Phosphodiesterase, PDE1/PDE5 (Homo sapiens, UniProt O76074+P54750+Q01064+Q14123)
Assay: Inhibitory activity against phosphodiesterase 1/5 (PDE1/5) extracted from guinea pig trachea smooth muscle cells by using radioligands [3H]-cAMP or [3H]cGMP
Type: tissue-based, Cavia porcellus
Conditions: target entry is the homologue from another species

In the examples that follow, each entry is paired with its recorded IC50.
smiles_representation=Cc1cc2c3c(c1)C(c1ccccc1)=N[C@@H](NC(=O)c1cc(Cl)cc(Cl)c1)C(=O)N3CC2 assay_metric=IC50 result="> 100 µM"
smiles_representation=O=C(N[C@@H]1N=C(c2ccccc2)c2cc(O)cc3c2N(CC3)C1=O)c1cc2ccccc2cn1 assay_metric=IC50 result="> 100 µM"
smiles_representation=O=C(N[C@@H]1N=C(c2ccccc2)c2cccc3c2N(CC3)C1=O)c1cc2ccccc2cn1 assay_metric=IC50 result="> 100 µM"
smiles_representation=COc1cc2c3c(c1)C(c1ccccc1)=N[C@@H](NC(=O)c1cc4ccccc4cn1)C(=O)N3CC2 assay_metric=IC50 result="65.3 µM"

For every record below, what is its IC50?
1. Cc1cc2c3c(c1)C(c1ccccc1)=N[C@@H](NC(=O)c1nnc4cc(C)nn4c1C)C(=O)N3CC2
2. COc1ccccc1C(=O)N[C@@H]1N=C(c2ccccc2)c2cc(C)cc3c2N(CC3)C1=O
3. Nc1c(Cl)cc(C(=O)N[C@@H]2N=C(c3ccccc3)c3cccc4c3N(CC4)C2=O)cc1Cl

Response:
> 100 µM
71.7 µM
> 100 µM

So, `COc1cc2c3c(c1)C(c1ccccc1)=N[C@@H](NC(=O)c1cc4ccccc4[nH]1)C(=O)N3CC2` ? Its IC50 was 100 µM

====

Consider the following compounds; for each one, report its IC50.
Target: Phosphodiesterase, PDE1/PDE5 (Homo sapiens, UniProt O76074+P54750+Q01064+Q14123)
Assay: Inhibitory activity against phosphodiesterase 1/5 (PDE1/5) extracted from guinea pig trachea smooth muscle cells by using radioligands [3H]-cAMP or [3H]cGMP
Assay type: tissue-based, Cavia porcellus
Conditions: target entry is the homologue from another species
Numbers only, in µM.

Hi team, please reply with IC50 for each item in this list.
1. O=C(N[C@H]1N=C(c2ccccc2)c2cccc3c2N(CC3)C1=O)c1cc2ccccc2[nH]1
2. COc1cc2c3c(c1)C(c1ccccc1)=N[C@@H](NC(=O)c1ccc(Cl)cc1)C(=O)N3CC2

Response:
1: 100; 2: 40

====

Give measured IC50 for each item. Keep answers brief.
Biological target: Phosphodiesterase 3 (Homo sapiens, UniProt Q14432+Q13370)
Assay: Inhibition of Phosphodiesterase 3 extracted from dog aorta smooth muscle cells by using radioligands [3H]cAMP or [3H]-cGMP.
Set-up: species or system Canis lupus familiaris
Conditions: target entry is the homologue from another species

For every listed record, write down its IC50.
1. Cc1cc2c3c(c1)C(c1ccccc1)=N[C@@H](NC(=O)c1cc4ccccc4cn1)C(=O)N3CC2
2. COc1cc2c3c(c1)C(c1ccccc1)=N[C@@H](NC(=O)c1cc4ccccc4cn1)C(=O)N3CC2
3. Cc1cc2c3c(c1)C(c1ccccc1)=N[C@@H](NC(=O)c1ccc(Cl)cc1)C(=O)N3CC2

Response:
> 100 µM
82 µM
27 µM

Can you give me IC50 for all of these, one by one?
1. O=C(N[C@@H]1N=C(c2ccccc2)c2cccc3c2N(CC3)C1=O)c1cc2ccccc2cn1
2. COc1cc2c3c(c1)C(c1ccccc1)=N[C@@H](NC(=O)c1ccc(Cl)cc1)C(=O)N3CC2
3. Cc1cc2c3c(c1)C(c1ccccc1)=N[C@@H](NC(=O)c1ccncc1)C(=O)N3CC2

Response:
["> 100 µM", "62 µM", "> 100 µM"]

For each entry beneath this line, provide reported IC50.
1. COc1ccc(C(=O)N[C@@H]2N=C(c3ccccc3)c3cc(C)cc4c3N(CC4)C2=O)c(OC)c1
2. O=C(NC1N=C(c2ccccc2)c2cccc3c2N(CCC3)C1=O)c1cc2ccccc2[nH]1 (stereo not drawn)

Response:
1. 7.85 µM
2. > 100 µM
